- method_summary: NCI Yeast Anticancer Drug Screen. Data for the cln2 rad14 strain (AID 165)
- particulars: S. cerevisiae cln2 rad14 strain, at 50.0 µM
The panel holds about 79,000 compounds, 15% with a hit somewhere; the sample as a whole holds those more often. Calls of active or inactive are those of the source. No stated cut-off is given here; in the data, active means growth inhibition above about 70%; inactive means the rest.
Your reply should match one of these outcome classes. active, inactive

Example results:
C=CCCCN1C(=O)C2C3c4ccccc4C(C=O)(c4ccccc43)C2C1=O (configuration not stated)	inactive
CN(Cc1cc(Cl)cc(Cl)c1)CC(C(=O)c1ccccc1)c1ccccc1 (configuration not stated)	inactive
CN=c1sc2c(n1C)C(=O)c1ccccc1C2=O	inactive
O=C(/C=C/C(=O)N1CCCC1)N1CCCC1	inactive
CCCCn1cnc2c(SCc3ccccc3[N+](=O)[O-])nc(N)nc21	active
CC(CC=NCCN=CCC(C)CC(C)(C)C)CC(C)(C)C (configuration not stated)	inactive

## Input Dear colleague, could you share the recorded outcome for CCSc1c2ccccc2nc2c(OC)ccc(OC)c12 when you have a moment?
## Output inactive

## Input Dear colleague, could you share the recorded outcome for CCCCCCOC(=O)Nc1ccc(S(=O)(=O)N2CCCCC2)cc1 when you have a moment?
## Output inactive

## Input Dear colleague, could you share the recorded outcome for O=C1C(Br)CCC1(c1ccccc1)c1ccccc1 (configuration not stated) when you have a moment?
## Output active

## Input Dear colleague, could you share the recorded outcome for CC(=O)Nc1ccc(Nc2ccc(C(=C3C=CC(=[N+](C)CCC#N)C=C3)c3ccc(N(C)CCC#N)cc3)cc2)cc1 when you have a moment?
## Output inactive

## Input Dear colleague, could you share the recorded outcome for OC1CC2OC2C1O (configuration not stated) when you have a moment?
## Output inactive

## Input Dear colleague, could you share the recorded outcome for O=C1OC(=O)c2ccc(S)c3cccc1c23 when you have a moment?
## Output inactive
